The measurements presented in this section are drawn from patent US20190062438A1.

Attribute: kon
MEASUREMENT_TARGET: T1, soluble Homo sapiens CD131 comprising a C-terminal 6xHis tag (human, UniProt P32927 17-438)
T1 construct: truncated after Ser438, C-terminal 6xHis; also called shCD131; shβc
T1 sequence: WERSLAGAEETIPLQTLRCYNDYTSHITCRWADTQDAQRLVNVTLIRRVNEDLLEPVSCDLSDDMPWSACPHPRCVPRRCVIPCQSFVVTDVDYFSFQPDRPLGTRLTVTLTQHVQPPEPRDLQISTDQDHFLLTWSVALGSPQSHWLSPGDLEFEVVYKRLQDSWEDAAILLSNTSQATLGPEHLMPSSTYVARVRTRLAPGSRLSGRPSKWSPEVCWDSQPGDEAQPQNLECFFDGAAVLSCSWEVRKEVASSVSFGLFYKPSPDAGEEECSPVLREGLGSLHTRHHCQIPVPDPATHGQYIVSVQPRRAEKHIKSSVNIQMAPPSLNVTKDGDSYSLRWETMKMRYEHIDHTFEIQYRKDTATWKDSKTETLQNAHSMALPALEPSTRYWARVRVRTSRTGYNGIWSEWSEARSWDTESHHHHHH
EXPERIMENT: SPR, Fab over captured shCD131
Experimental: Binding kinetics were measured using SPR with a BIAcore™ A-100 instrument (GE Healthcare Life Sciences). […] shCD131 was captured on spots 1 and 5 of each flow cell for 2 minutes at a concentration of 0.4 μg/ml. […] For some analysis purified Fab was injected over each flow cell for 3 minutes and dissociation was monitored for a further 10 minutes. […] The analysis was performed with Fabs at several concentrations between 100 and 0.31 nM, with each concentration analyzed twice and in random order. […]
Please give a number only; it is taken to be in M⁻¹ s⁻¹.

Study these solved cases before continuing.
BINDER | NUMERIC_RESULT
9A2-VR40 Fab (Fab, V domains shown, recombinant Fab) VH: EVQLLESGGGLVQPGGSLRLSCAASGFTFSHYHMLWVRQAPGKGLEWVSSINGYGIQTYYADSVKGRFTISRDNSKNTLYLQMNSLRAEDTAVYYCARFYDSFFDIWGQGTMVTVSS VL: DIQMTQSPSSVSASVGDRVTITCRASQGISSWLAWYQQKPGKAPKLLIYAASSLQSGVPSRFSGSGSGTDFTLTISSLQPEDFATYYCQQANSFPITFGQGTRLEIKR | 1.3e+06
9A2-VR39 Fab (Fab, V domains shown, recombinant Fab) VH: EVQLLESGGGLVQPGGSLRLSCAASGFTFSHYHMLWVRQAPGKGLEWVSSINGRGRVTYYADSVKGRFTISRDNSKNTLYLQMNSLRAEDTAVYYCARFYDSFFDIWGQGTMVTVSS VL: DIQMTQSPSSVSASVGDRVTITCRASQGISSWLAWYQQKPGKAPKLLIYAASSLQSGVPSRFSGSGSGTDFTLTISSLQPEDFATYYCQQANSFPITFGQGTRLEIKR | 3e+06
9A2-VR41 Fab (Fab, V domains shown, recombinant Fab) VH: EVQLLESGGGLVQPGGSLRLSCAASGFTFSHYHMLWVRQAPGKGLEWVSSINGKGWTTYYADSVKGRFTISRDNSKNTLYLQMNSLRAEDTAVYYCARFYDSFFDIWGQGTMVTVSS VL: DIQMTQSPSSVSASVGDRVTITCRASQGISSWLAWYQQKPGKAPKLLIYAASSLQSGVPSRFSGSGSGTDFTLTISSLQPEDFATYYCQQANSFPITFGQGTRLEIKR | 1.7e+06

Next, consider the following binder.
## Input Give its kon value. Item: 9A2-VR27 Fab (Fab, V domains shown, recombinant Fab) VH: EVQLLESGGGLVQPGGSLRLSCAASGFTFTHYRVHWVRQAPGKGLEWVSSIRSSGGFTYYADSVKGRFTISRDNSKNTLYLQMNSLRAEDTAVYYCARFYDSFFDIWGQGTMVTVSS VL: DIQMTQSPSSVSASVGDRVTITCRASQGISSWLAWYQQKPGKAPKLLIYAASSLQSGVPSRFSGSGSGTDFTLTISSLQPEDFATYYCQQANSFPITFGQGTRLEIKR
## Output 2.3e+06
